Recorded values, source patent US10000500B2.

# tested-target: NANOLUC® Luciferase (Oplophorus gracilirostris, UniProt Q9GV45, A31E/A60N/A81I/F95D/I117V/K70R/L54V/L99Q/M102K/N193R/P142E/Q151K/Q38R/Q45L/V71I/Y165I)
# Sequence (Q9GV45 28-196 with tags or gaps with the stated changes limits assumed): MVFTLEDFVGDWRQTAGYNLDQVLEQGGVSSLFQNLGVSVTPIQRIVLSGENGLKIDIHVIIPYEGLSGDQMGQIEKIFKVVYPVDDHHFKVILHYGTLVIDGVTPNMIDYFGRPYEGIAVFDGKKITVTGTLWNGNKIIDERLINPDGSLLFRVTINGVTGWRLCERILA
# measurement-protocol: Spectral measurements in various buffers with NANOLUC luciferase (Example 10)
# Type: biochemical
# run-conditions: emission spectrum; NanoLuc; NanoGlo Buffer
quantity-measured: Peak

Known Peak results, listed for orientation:
[
  {
    "smiles-str": "O=c1c(Cc2ccco2)nc2c(-c3ccnc4ccccc34)[nH]c(-c3ccc(O)cc3)cn1-2",
    "quantity-measured": "Peak",
    "test-result": 589
  },
  {
    "smiles-str": "O=c1c(Cc2ccco2)nc2c(Cc3ccccc3)[nH]c(-c3ccccc3)cn1-2",
    "quantity-measured": "Peak",
    "test-result": 463
  },
  {
    "smiles-str": "Oc1ccc(-c2cn3c(O)c(Cc4ccccc4)nc3c(Cc3ccccc3)n2)cc1",
    "quantity-measured": "Peak",
    "test-result": 466
  },
  {
    "smiles-str": "N#Cc1ccc(-c2[nH]c(-c3ccc(O)cc3)cn3c(=O)c(Cc4ccco4)nc2-3)s1",
    "quantity-measured": "Peak",
    "test-result": 592
  },
  {
    "smiles-str": "O=c1c(Cc2ccco2)nc2c(-c3ccccc3)[nH]c(-c3ccccc3)cn1-2",
    "quantity-measured": "Peak",
    "test-result": 493
  }
]

Asked: I'd like to know its Peak. The molecule in question is O=c1c(Cc2ccco2)nc2c(-c3ccnc4ccccc34)[nH]c(-c3ccccc3)cn1-2
Given back: 574

Asked: If you can, please state the reported Peak value of N#Cc1ccc(-c2[nH]c(-c3ccccc3)cn3c(=O)c(Cc4ccco4)nc2-3)s1 .
Given back: 577

###

This section presents compounds with their documented Width values.
# tested-target: NANOLUC® Luciferase (Oplophorus gracilirostris, UniProt Q9GV45, A31E/A60N/A81I/F95D/I117V/K70R/L54V/L99Q/M102K/N193R/P142E/Q151K/Q38R/Q45L/V71I/Y165I)
# measurement-protocol: Spectral measurements in various buffers with NANOLUC luciferase (Example 10)
# Type: biochemical
# run-conditions: emission spectrum; NanoLuc; OptiMEM + 0.1% FBS
// print number alone

Examples from the recorded data:
[
  {
    "compound": "O=c1c(Cc2ccco2)nc2c(-c3ccnc4ccccc34)[nH]c(-c3ccc(O)cc3)cn1-2 [AS-360]",
    "Width": 114
  },
  {
    "compound": "O=c1c(Cc2ccco2)nc2c(-c3ccccc3)[nH]c(-c3ccccc3)cn1-2 [AS-174]",
    "Width": 75
  },
  {
    "compound": "Oc1ccc(-c2cn3c(O)c(Cc4ccccc4)nc3c(Cc3ccccc3)n2)cc1 [Coelenterazine-H]",
    "Width": 69
  },
  {
    "compound": "N#Cc1ccc(-c2[nH]c(-c3ccccc3)cn3c(=O)c(Cc4ccco4)nc2-3)s1 [AS-262]",
    "Width": 93
  },
  {
    "compound": "N#Cc1ccc(-c2[nH]c(-c3ccc(O)cc3)cn3c(=O)c(Cc4ccco4)nc2-3)s1 [AS-353]",
    "Width": 93
  },
  {
    "compound": "O=c1c(Cc2ccco2)nc2c(Cc3ccccc3)[nH]c(-c3ccccc3)cn1-2 [Furimazine]",
    "Width": 69
  }
]

Now consider a different compound.
Asked: Item O=c1c(Cc2ccco2)nc2c(-c3ccnc4ccccc34)[nH]c(-c3ccccc3)cn1-2 [AS-310] has what recorded Width?
Given back: 111

###

This listing pairs compounds with measured λmax, nm.
# tested-target: NANOLUC® Luciferase (Oplophorus gracilirostris, UniProt Q9GV45, A31E/A60N/A81I/F95D/I117V/K70R/L54V/L99Q/M102K/N193R/P142E/Q151K/Q38R/Q45L/V71I/Y165I)
# measurement-protocol: Luminescence assay with purified NANOLUC luciferase (Example 7)
# Format: biochemical
# run-conditions: bioluminescence with NANOLUC luciferase
Give the value in nm but do not write nm after it.

[
  {
    "smiles-str": "O=c1c(Cc2ccco2)nc2c(-c3ccnc(F)c3)[nH]c(-c3ccccc3)cn1-2",
    "quantity-measured": "λmax, nm",
    "test-result": 532
  },
  {
    "smiles-str": "Cn1cc(-c2[nH]c(-c3ccn(C)n3)cn3c(=O)c(Cc4ccco4)nc2-3)cn1",
    "quantity-measured": "λmax, nm",
    "test-result": 496
  },
  {
    "smiles-str": "O=c1c(Cc2ccco2)nc2c(-c3ccnc4ccccc34)[nH]c(-c3ccccc3)cn1-2",
    "quantity-measured": "λmax, nm",
    "test-result": 571
  },
  {
    "smiles-str": "O=c1c(Cc2ccco2)nc2c(-c3ccc(F)cc3)[nH]c(-c3ccccc3)cn1-2",
    "quantity-measured": "λmax, nm",
    "test-result": 490
  },
  {
    "smiles-str": "O=c1c(Cc2ccco2)nc2c(-c3ccccc3)[nH]c(-c3ccccc3)cn1-2",
    "quantity-measured": "λmax, nm",
    "test-result": 496
  }
]

Asked: Which λmax, nm value belongs to Nc1ccccc1-c1cn2c(=O)c(Cc3ccco3)nc-2c(Cc2ccccc2)[nH]1 ?
Given back: 487

Asked: Which λmax, nm value belongs to O=c1c(Cc2ccco2)nc2c(-c3ccnc(Cl)c3)[nH]c(-c3ccccc3)cn1-2 ?
Given back: 535

Asked: Data request, read-out λmax, nm, for O=c1c(Cc2ccco2)nc2c(-c3ccccc3)[nH]c(-c3ccccc3)c(-c3ccccc3)n1-2
Given back: 520

###

# tested-target: NANOLUC® Luciferase (Oplophorus gracilirostris, UniProt Q9GV45, A31E/A60N/A81I/F95D/I117V/K70R/L54V/L99Q/M102K/N193R/P142E/Q151K/Q38R/Q45L/V71I/Y165I)
# measurement-protocol: Spectral measurements in various buffers with NANOLUC luciferase (Example 10)
# Type: biochemical
# run-conditions: emission spectrum; NanoLuc; OptiMEM + 0.1% FBS
quantity-measured: Low
Please give the numeric answer without any surrounding text.

Example entries and their recorded answers appear below.
[
  {
    "molecule": "O=c1c(Cc2ccco2)nc2c(-c3ccccc3)[nH]c(-c3ccccc3)cn1-2 [AS-174]",
    "Low": 460
  },
  {
    "molecule": "O=c1c(Cc2ccco2)nc2c(Cc3ccccc3)[nH]c(-c3ccccc3)cn1-2 [Furimazine]",
    "Low": 430
  },
  {
    "molecule": "O=c1c(Cc2ccco2)nc2c(-c3ccnc4ccccc34)[nH]c(-c3ccc(O)cc3)cn1-2 [AS-360]",
    "Low": 532
  },
  {
    "molecule": "Oc1ccc(-c2cn3c(O)c(Cc4ccccc4)nc3c(Cc3ccccc3)n2)cc1 [Coelenterazine-H]",
    "Low": 433
  },
  {
    "molecule": "N#Cc1ccc(-c2[nH]c(-c3ccccc3)cn3c(=O)c(Cc4ccco4)nc2-3)s1 [AS-262]",
    "Low": 532
  },
  {
    "molecule": "O=c1c(Cc2ccco2)nc2c(-c3ccnc4ccccc34)[nH]c(-c3ccccc3)cn1-2 [AS-310]",
    "Low": 520
  }
]

Asked: // Low lookup, key: N#Cc1ccc(-c2[nH]c(-c3ccc(O)cc3)cn3c(=O)c(Cc4ccco4)nc2-3)s1 [AS-353]
Given back: 544

###

# tested-target: NANOLUC® Luciferase (Oplophorus gracilirostris, UniProt Q9GV45, A31E/A60N/A81I/F95D/I117V/K70R/L54V/L99Q/M102K/N193R/P142E/Q151K/Q38R/Q45L/V71I/Y165I)
# measurement-protocol: Spectral measurements in various buffers with NANOLUC luciferase (Example 10)
# Type: biochemical
# run-conditions: NanoLuc; OptiMEM
quantity-measured: OptiMEM (spectral peak, Table 4)
Lab note: write the figure by itself, no unit.

Solved entries (count: 6):
[
  {
    "smiles-str": "Oc1ccc(-c2cn3c(O)c(Cc4ccccc4)nc3c(Cc3ccccc3)n2)cc1",
    "quantity-measured": "OptiMEM (spectral peak, Table 4)",
    "test-result": 460
  },
  {
    "smiles-str": "N#Cc1ccc(-c2[nH]c(-c3ccccc3)cn3c(=O)c(Cc4ccco4)nc2-3)s1",
    "quantity-measured": "OptiMEM (spectral peak, Table 4)",
    "test-result": 574
  },
  {
    "smiles-str": "O=c1c(Cc2ccco2)nc2c(Cc3ccccc3)[nH]c(-c3ccccc3)cn1-2",
    "quantity-measured": "OptiMEM (spectral peak, Table 4)",
    "test-result": 463
  },
  {
    "smiles-str": "O=c1c(Cc2ccco2)nc2c(-c3ccnc4ccccc34)[nH]c(-c3ccc(O)cc3)cn1-2",
    "quantity-measured": "OptiMEM (spectral peak, Table 4)",
    "test-result": 583
  },
  {
    "smiles-str": "O=c1c(Cc2ccco2)nc2c(-c3ccccc3)[nH]c(-c3ccccc3)cn1-2",
    "quantity-measured": "OptiMEM (spectral peak, Table 4)",
    "test-result": 490
  },
  {
    "smiles-str": "O=c1c(Cc2ccco2)nc2c(-c3ccnc4ccccc34)[nH]c(-c3ccccc3)cn1-2",
    "quantity-measured": "OptiMEM (spectral peak, Table 4)",
    "test-result": 571
  }
]

Moving on to the next compound.
Asked: Quick one: OptiMEM (spectral peak, Table 4) of N#Cc1ccc(-c2[nH]c(-c3ccc(O)cc3)cn3c(=O)c(Cc4ccco4)nc2-3)s1 ?
Given back: 583
